# System: BLACKGRASS
# Test description: Test E
# Assay type: in vivo, Alopercurus mysuroides
# Condition context: POSTEMERGENCE 0500 GM/HA
Observable: plant response (%)
Numbers only; they are read as %.

C=C(c1ccccc1)C(O)(Cn1cncn1)c1ccc(F)cc1F (stereo not shown) [Example 52]	60

Entry C=C(c1ccc(F)cc1)C(O)(Cn1cncn1)c1ccc(F)cc1F (stereo not shown) [Example 4] , plant response reported as 50

Entry C=C(c1ccccc1)C(O)(Cn1cncn1)c1ccc(Cl)cc1 (stereo not shown) [Example 51] , plant response reported as 0

Entry C=C(c1ccc(F)cc1)C(O)(Cn1cncn1)c1ccccc1F (stereo not shown) [Example 644] , plant response reported as 50
